The measurements presented in this section are drawn from patent US20110143948A1.

- Test system: ncRNAs (SEQ ID NO 28-89)
- assayExplanation: ncRNA arrays of melanocytes, keratinocytes, normal skin, melanoma cell lines and patient samples
- Parameters: species or system human
- appliedConditions: melanoma patient 21 sample compared to normal skin
Would you mind labelling by ncRNA array expression, patient 21? At or over 0.5 is Condition met, under is Condition not met.

substance: SEQ ID NO 63 (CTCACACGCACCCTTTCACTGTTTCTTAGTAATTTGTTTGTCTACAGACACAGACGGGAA; listed as DNA, chemistry not given here; listed as Homo sapiens)
qualitativeLabel: Condition not met
--
substance: SEQ ID NO 57 (TTGTTGTTTTGGGAGATACCCTGTTTAGCCTGAAAGGATTGAGATACTGTAATTGCTATG; listed as DNA, chemistry not given here; listed as Homo sapiens)
qualitativeLabel: Condition met
--
substance: SEQ ID NO 41 (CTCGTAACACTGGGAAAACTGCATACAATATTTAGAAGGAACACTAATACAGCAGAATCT; listed as DNA, chemistry not given here; listed as Homo sapiens)
qualitativeLabel: Condition not met
--
substance: SEQ ID NO 28 (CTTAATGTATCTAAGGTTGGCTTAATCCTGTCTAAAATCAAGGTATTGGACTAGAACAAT; DNA, backbone and methylation of C not given here; listed as Homo sapiens)
qualitativeLabel: Condition not met
--
substance: SEQ ID NO 81 (CTAGGGGCGGAGTTTCTCGTAAGGGGCAAGGCCAAGGCATCTTGTATTGGGGCTGACAGG; listed as DNA, chemistry not given here; listed as Homo sapiens)
qualitativeLabel: Condition not met
--
substance: SEQ ID NO 53 (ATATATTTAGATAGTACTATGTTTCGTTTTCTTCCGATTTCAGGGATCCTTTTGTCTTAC; listed as DNA, chemistry not given here; listed as Homo sapiens)
qualitativeLabel: Condition not met

----------
- System: ncRNAs (SEQ ID NO 28-89)
- assayExplanation: ncRNA arrays of melanocytes, keratinocytes, normal skin, melanoma cell lines and patient samples
- Parameters: species or system human
- appliedConditions: melanoma patient 22 sample compared to normal skin

substance: SEQ ID NO 77 (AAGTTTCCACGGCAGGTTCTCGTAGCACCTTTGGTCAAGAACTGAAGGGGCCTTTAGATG; listed as DNA, chemistry not given here; listed as Homo sapiens)
ncRNA array expression, patient 22: −0.5892

substance: SEQ ID NO 55 (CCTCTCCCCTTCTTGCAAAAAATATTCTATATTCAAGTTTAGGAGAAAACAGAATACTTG; listed as DNA, chemistry not given here; listed as Homo sapiens)
ncRNA array expression, patient 22: −1.439

substance: SEQ ID NO 79 (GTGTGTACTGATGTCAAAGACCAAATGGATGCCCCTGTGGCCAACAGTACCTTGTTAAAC; listed as DNA, chemistry not given here; listed as Homo sapiens)
ncRNA array expression, patient 22: 1.165

substance: SEQ ID NO 71 (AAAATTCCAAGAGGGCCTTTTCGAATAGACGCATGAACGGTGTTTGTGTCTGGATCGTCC; listed as DNA, chemistry not given here; listed as Homo sapiens)
ncRNA array expression, patient 22: 1.105

substance: SEQ ID NO 32 (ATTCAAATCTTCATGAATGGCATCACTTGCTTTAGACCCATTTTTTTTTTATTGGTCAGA; DNA, backbone and methylation of C not given here; listed as Homo sapiens)
ncRNA array expression, patient 22: 0.9022

substance: SEQ ID NO 84 (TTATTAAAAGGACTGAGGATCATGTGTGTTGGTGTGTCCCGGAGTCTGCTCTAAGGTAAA; listed as DNA, chemistry not given here; listed as Homo sapiens)
ncRNA array expression, patient 22: 2.01

substance: SEQ ID NO 66 (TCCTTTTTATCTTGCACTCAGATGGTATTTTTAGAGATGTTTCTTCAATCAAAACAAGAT; listed as DNA, chemistry not given here; listed as Homo sapiens)
ncRNA array expression, patient 22: 1.15

substance: SEQ ID NO 36 (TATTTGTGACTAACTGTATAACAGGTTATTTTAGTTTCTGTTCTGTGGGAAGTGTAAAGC; listed as DNA, chemistry not given here; listed as Homo sapiens)
ncRNA array expression, patient 22: 3.164

substance: SEQ ID NO 47 (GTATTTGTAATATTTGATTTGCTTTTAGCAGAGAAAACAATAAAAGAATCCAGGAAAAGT; listed as DNA, chemistry not given here; listed as Homo sapiens)
ncRNA array expression, patient 22: −2.41

substance: SEQ ID NO 85 (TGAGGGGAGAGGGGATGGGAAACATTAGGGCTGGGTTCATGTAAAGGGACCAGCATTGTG; listed as DNA, chemistry not given here; listed as Homo sapiens)
ncRNA array expression, patient 22: −1.235

substance: SEQ ID NO 46 (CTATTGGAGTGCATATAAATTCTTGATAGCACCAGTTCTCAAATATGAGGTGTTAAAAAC; listed as DNA, chemistry not given here; listed as Homo sapiens)
ncRNA array expression, patient 22: −0.4275

substance: SEQ ID NO 87 (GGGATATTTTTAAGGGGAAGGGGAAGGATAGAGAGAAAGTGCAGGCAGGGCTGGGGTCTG; listed as DNA, chemistry not given here; listed as Homo sapiens)
ncRNA array expression, patient 22: −1.312

substance: SEQ ID NO 63 (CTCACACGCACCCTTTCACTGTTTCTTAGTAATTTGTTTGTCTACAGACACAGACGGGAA; listed as DNA, chemistry not given here; listed as Homo sapiens)
ncRNA array expression, patient 22: −0.3562
